# credit: the Kinase Knowledgebase extract (Sharma et al. 2016)

- assayed.target: EGFR (human)
Kindly apply the following: condition met if IC50 is less than 70 nM, condition not met in every other case.

# check: IC50 < 70 nM for "O=S1(=O)CCC(O)(CNCc2ccn(-c3ccc4ncnc(Nc5ccc(OCc6cccc(F)c6)c(Cl)c5)c4c3)c2)CC1"
condition met

# check: IC50 < 70 nM for "O=C(Cn1ccc(-c2ccc3ncnc(Nc4ccc(OCc5cccc(F)c5)c(Cl)c4)c3c2)c1)N1CCN(CC2CC2)CC1"
condition not met

# check: IC50 < 70 nM for "CC(=O)NC1CCN(C(=O)Cn2ccc(-c3ccc4ncnc(Nc5ccc(OCc6cccc(F)c6)c(Cl)c5)c4c3)c2)CC1"
condition not met

# check: IC50 < 70 nM for "O[C@H](CN1CCOCC1)Cn1ccc(-c2ccc3ncnc(Nc4ccc5c(cnn5Cc5cccc(F)c5)c4)c3c2)c1"
condition met

# check: IC50 < 70 nM for OC(CN1CCN(Cc2cccnc2)CC1)Cn1ccc(-c2ccc3ncnc(Nc4ccc5c(cnn5Cc5cccc(F)c5)c4)c3c2)c1 (stereo not drawn)
condition not met

# check: IC50 < 70 nM for "CCN(CC)CCNCc1cccn1-c1ccc2ncnc(Nc3ccc(OCc4cccc(F)c4)c(Cl)c3)c2c1"
condition met

# check: IC50 < 70 nM for "CNCCn1ccc(-c2ccc3ncnc(Nc4ccc(OCc5cccc(F)c5)c(Cl)c4)c3c2)c1"
condition not met

# check: IC50 < 70 nM for "CN(C)[C@@H]1CCN(C(=O)Cn2ccc(-c3ccc4ncnc(Nc5ccc(OCc6cccc(F)c6)c(Cl)c5)c4c3)c2)C1"
condition not met

====

- assayed.target: EGFR (human) (UniProt P00533)
- Sequence (P00533 whole entry, looked up): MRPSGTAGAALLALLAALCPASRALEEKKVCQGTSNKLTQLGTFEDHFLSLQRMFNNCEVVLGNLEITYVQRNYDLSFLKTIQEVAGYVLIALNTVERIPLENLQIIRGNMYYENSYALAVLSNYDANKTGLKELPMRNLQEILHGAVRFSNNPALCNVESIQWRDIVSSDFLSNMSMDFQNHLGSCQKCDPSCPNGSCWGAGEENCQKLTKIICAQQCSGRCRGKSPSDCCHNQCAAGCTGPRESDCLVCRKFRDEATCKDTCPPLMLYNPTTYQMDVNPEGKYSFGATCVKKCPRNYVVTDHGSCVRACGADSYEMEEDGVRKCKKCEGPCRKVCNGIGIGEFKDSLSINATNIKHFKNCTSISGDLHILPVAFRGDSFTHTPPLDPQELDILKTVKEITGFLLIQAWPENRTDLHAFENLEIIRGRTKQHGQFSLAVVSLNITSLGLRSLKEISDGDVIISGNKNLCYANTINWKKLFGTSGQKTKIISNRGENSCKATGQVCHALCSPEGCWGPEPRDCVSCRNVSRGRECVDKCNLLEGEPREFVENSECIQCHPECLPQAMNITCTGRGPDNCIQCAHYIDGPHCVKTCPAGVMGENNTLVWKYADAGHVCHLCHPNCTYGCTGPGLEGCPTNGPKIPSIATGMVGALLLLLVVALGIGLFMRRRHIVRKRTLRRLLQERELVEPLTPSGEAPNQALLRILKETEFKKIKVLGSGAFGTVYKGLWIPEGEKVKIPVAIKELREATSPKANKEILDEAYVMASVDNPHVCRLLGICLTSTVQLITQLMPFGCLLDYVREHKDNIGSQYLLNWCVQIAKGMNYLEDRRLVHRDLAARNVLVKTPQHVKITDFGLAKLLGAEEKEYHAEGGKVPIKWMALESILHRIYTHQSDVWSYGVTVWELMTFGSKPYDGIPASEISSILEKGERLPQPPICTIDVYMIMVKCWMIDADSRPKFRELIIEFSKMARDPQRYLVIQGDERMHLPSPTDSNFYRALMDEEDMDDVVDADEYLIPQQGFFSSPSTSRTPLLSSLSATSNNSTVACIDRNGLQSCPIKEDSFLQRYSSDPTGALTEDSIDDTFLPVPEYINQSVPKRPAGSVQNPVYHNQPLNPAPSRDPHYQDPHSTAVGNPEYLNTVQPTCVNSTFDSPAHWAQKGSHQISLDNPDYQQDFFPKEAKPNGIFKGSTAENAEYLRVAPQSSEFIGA
- applied.conditions: a431
Kindly apply the following: 1 (yes) if IC50 is less than 700 nM, 0 (no) in every other case.

# check: IC50 < 700 nM for "OC1CCN(C[C@@H](O)Cn2ccc(-c3ccc4ncnc(Nc5ccc(OCc6cccc(F)c6)c(Cl)c5)c4c3)c2)CC1"
0 (no)

# check: IC50 < 700 nM for "Clc1cc(Nc2ncnc3ccc(-c4ccc[nH]4)cc23)ccc1OCc1ccccn1"
1 (yes)

# check: IC50 < 700 nM for "O[C@@H](CN1CCOCC1)Cn1ccc(-c2ccc3ncnc(Nc4ccc(OCc5cccc(F)c5)c(Cl)c4)c3c2)c1"
1 (yes)

# check: IC50 < 700 nM for "Cc1ccc(Oc2ccc(Nc3ncnc4ccc(-n5cc(CCO)c(C(=O)NCCN6CCCC6)c5)cc34)cc2C)cn1"
1 (yes)

# check: IC50 < 700 nM for "O=C(Cn1ccc(-c2ccc3ncnc(Nc4ccc(OCc5cccc(F)c5)c(Cl)c4)c3c2)c1)N1CCOCC1"
0 (no)

# check: IC50 < 700 nM for "CCN(CC)Cc1ccn(-c2ccc3ncnc(Nc4ccc(OCc5cccc(F)c5)c(Cl)c4)c3c2)c1"
1 (yes)

# check: IC50 < 700 nM for "CCN(CC)CCNC(=O)c1cn(-c2ccc3ncnc(Nc4ccc(OCc5ccccn5)c(Cl)c4)c3c2)cc1CCO"
1 (yes)

# check: IC50 < 700 nM for "Fc1cccc(COc2ccc(Nc3ncnc4ccc(-c5ccn(CCCN6CCN(c7cccc(Cl)c7)CC6)c5)cc34)cc2Cl)c1"
1 (yes)

# check: IC50 < 700 nM for "O=C(NCCN1CCCC1)c1cn(-c2ccc3ncnc(Nc4ccc(OCc5cccc(F)c5)c(Cl)c4)c3c2)cc1CCO"
1 (yes)

# check: IC50 < 700 nM for "O[C@@H](CN1CCOCC1)Cn1ccc(-c2ccc3ncnc(Nc4ccc5c(cnn5Cc5cccc(F)c5)c4)c3c2)c1"
0 (no)

# check: IC50 < 700 nM for "Fc1cccc(COc2ccc(Nc3ncnc4ccc(-c5ccn(CCN6CCN(CC7CC7)CC6)c5)cc34)cc2Cl)c1"
0 (no)

# check: IC50 < 700 nM for OC(CN1CCN(Cc2ccncc2)CC1)Cn1ccc(-c2ccc3ncnc(Nc4ccc5c(cnn5Cc5cccc(F)c5)c4)c3c2)c1 (stereo unspecified)
0 (no)

# check: IC50 < 700 nM for "O=C(Cn1ccc(-c2ccc3ncnc(Nc4ccc(OCc5cccc(F)c5)c(Cl)c4)c3c2)c1)N1CCC(N2CCCC2)CC1"
1 (yes)

# check: IC50 < 700 nM for "CN1CCN(C(=O)Cn2ccc(-c3ccc4ncnc(Nc5ccc(OCc6cccc(F)c6)c(Cl)c5)c4c3)c2)CC1"
1 (yes)

# check: IC50 < 700 nM for "CS(=O)(=O)CCNCc1ccn(-c2ccc3ncnc(Nc4ccc(OCc5cccc(F)c5)c(Cl)c4)c3c2)c1"
0 (no)

# check: IC50 < 700 nM for CN1CCN(CC(O)Cn2ccc(-c3ccc4ncnc(Nc5ccc6c(cnn6Cc6cccc(F)c6)c5)c4c3)c2)CC1 (stereo unspecified)
0 (no)
